Source listed as patent US20260234276A1.

Molecular target: T1, human CCR8 (human, UniProt P51685 1-355)
T1 construct: the cells are named under assay; also called hCCR8
Assay: flow cytometry, hCCR8 transfected CHOK1 cells
Experimental: Briefly, 1·10⁵ cells per well in a 96 well plate were incubated with a dilution of unconjugated anti-CCR8 mAb at 10 μg/mL then diluted at 1/3.33, 4 dilution points (during 30 min at 4° C.). […] To determine EC50 value, 8 concentrations of anti-CCR8 mAb were tested. […] Bound detection antibody is quantified on a MacsQuant16 (Miltenyi, Gladbach, Germany) (B1 or B2 channel, 5000 events per acquisition).
ATTRIBUTE MEASURED: % positive cells (%)
Answers are plain numbers, in %.

[[record]]
binder = "3-47 (antibody, V domains shown) VH: QVQLQQPGAELVKPGASVKMSCKASGYTFTSYNMHWVKQTPGQGLEWIGAISPGNGDTSYNQKFKGKATLTADKSSSTAYMQLSSLTSEDSAVYYCARGKNGNVPMDYWGQGTSVTVSS VL: DIVLTQSPASLAVSLGQRATISCRASESVEYYGTSLMKWYQQKPGQPPKLLIYAASIVESGVPARFSGSGSGTDFSLNIHPVEEDDIAMYFCQQSRKVPWTFGGGTKLEIK"
attribute_measured = "% positive cells"
unit_text = "%"
observed_value = 75.8

[[record]]
binder = "3-42 (antibody, V domains shown) VH: QVQLKESGPGLVAPSQSLSITCTVSGFSLTDYRVSWIRQPPGKGLEWLGVIWGGRSTYYNSALKSRLSISKDNSKSQVFLKMNSLQTDDTAMYYCAKQGDGYYALDYWGQGTSVTVSS VL: DVVMTQTPLSLPVSLGDQASISCRSSQSLVHSYGNTYLHWYLQKPGQSPKLLIYKVSNRFSGVPDRFHGSGSGTDFTLKISRVEAEDLGVYFCSQSTHVPPTFGGGTKLEIK"
attribute_measured = "% positive cells"
unit_text = "%"
observed_value = 57.7

[[record]]
binder = "3-13 (antibody, V domains shown) VH: KVQLQQSGPELVKPGASVKISCKTSGYTFTEYTIHWVQQIHGKSPEWIGGINPNGDTRYDQKFKGKATLTIDKSSSTAYMELRSLTSEDSAVYYCARVARFYGISPYAMDYWGQGTSVTVSS VL: DVVMTQTPLSLPVSLGDQASISCRCTQSLLHSNGDTYLHWYLQKPGQSPNLLIYKVSNRFSGVPDRFSGSGSGTDFTLKINRVEAEDLGVYFCSQSTHVPYTFGGGTNLEIK"
attribute_measured = "% positive cells"
unit_text = "%"
observed_value = 85.7

[[record]]
binder = "3-23 (antibody, V domains shown) VH: QVQLVETGGGLVRPGNSLKLSCVISGFTFSNYRIHWLRQPPGKRLEWIAVITVKSDNYEANYAESVKGRFTISRDDSKSSVYLQMNRLREEDTATYYCSRPDGFSPFVYWGQGTLVTVSA VL: DIKMTQSPSSMYASLGERVTITCKASQDINNYLSWFQQKPGKSPKTLIYRADRLVDGVPSRFSGSGSGQDYSLTISSLDYEDMGIYYCLQYAEFPPTFGAGTKLELK"
attribute_measured = "% positive cells"
unit_text = "%"
observed_value = 80

[[record]]
binder = "3-48 (antibody, V domains shown) VH: QVQLVETGGGLVRPGNSLKLSCVTSGFTFSNYRMHWLRQPPGKRLEWIAVIKVKSDNYGANYAESVKGRFTISRDDSKSSVYLQVNRLREEDTATYYCSSPTYPGSSGFAYWGQGTLVTVSA VL: DIQMTQTTSSLSASLGDRVTISCRASQDISNYLNWYQQKPDGTVKLLIYYTSRLHSGVPSRFSGSGSGTDYSLTISNLEQEDIATYFCQQGNKFPPTFGGGTKLEIN"
attribute_measured = "% positive cells"
unit_text = "%"
observed_value = 83


List % positive cells for every entry below, keeping the order given.
1. 3-31 (antibody, V domains shown) VH: DVQLQESGPGLVKPSQSLSLTCTVTGYSITSNYAWNWIRQFPGNKLEWMVYITYSGSTRFNPSLKSRISITRDTSKNQFFLQLNSVTTEDTATYYCARGENLFAYWGQGTLVIVSA VL: DVVMTQTPLSLPVSLGDQASISCRSSQSLVHNNGNTYLHWYLQKPGQSPKLLIYKVSNRFSGVPDRFSGSGSGTDFTLKINRLEAEDLGVYFCSQSTYVPLTFGAGTKLELK
2. 3-1 (antibody, V domains shown) VH: EVQLVETGGGLVQPKGSLKVSCAASGFTFNTNAMNWVRQAPGKGLEWVARIRSKSNNYATYYADSVKDRFIISRDDSQSMLYLQMNNLKTEDTAMYYCVRGGYYGTSVYFDVWGAGTTVTVSS VL: DIVMTQAAPSVPVTPGESVSISCRSSKSLLHSNGNTYLYWFLQRPGQSPQLLIYRMSNLASGVPDRFSGSGSGTAFTLRISRVEAEDVGVYYCMQHLEYPFTFGGGTKLEIK

Response given:
[65.6, 38.8]
